- System: MEG01
- ASSAY_EXPLANATION: OncoPanel cytotoxicity assay
- Assay type: cell-based
- CONDITIONS: Homo sapiens, MEG-01, 72 hour incubation
MEASURED_METRIC: IC50 (µM)
The answer is to be given in µM; state only the numeric part.

Supply recorded IC50 for "CC1(C)CCC2(CC1)N[C@@H](C(=O)N[C@@H]1CC[C@@H](C(N)=O)OC1)[C@H](c1ccnc(Cl)c1F)[C@]21C(=O)Nc2cc(Cl)ccc21" here.
9.7

###

Please respond with reported pIC50 for every item in the list.
- Tested on: YAPC
- ASSAY_EXPLANATION: OncoPanel cytotoxicity assay
- Type: cell-based
- CONDITIONS: Homo sapiens, 72 hour incubation
pIC50: −log10 of the molar value.

Provide only the value of recorded pIC50 for "CC1(C)CCC2(CC1)N[C@@H](C(=O)N[C@@H]1CC[C@@H](C(N)=O)OC1)[C@H](c1ccnc(Cl)c1F)[C@]21C(=O)Nc2cc(Cl)ccc21"
< 5.00

Annotate the compound "CC[C@@H]1CNC2(CC2)CN1C(=O)[C@@H]1C[C@@H](F)CN1C(=O)C1=C(C(C)C)N2C(=N[C@@](C)(c3ccc(Cl)nc3)[C@H]2c2ccc(Cl)c(F)c2)S1" with its measured pIC50.
< 4.40

###

- System: Colo 320DM
- ASSAY_EXPLANATION: OncoPanel cytotoxicity assay
- Format: cell-based
- CONDITIONS: Homo sapiens, 72 hour incubation
pIC50: −log10 of the molar value.
Exercise: state measured pIC50 for each of the compounds provided.

Quote pIC50 reported for CC[C@@H]1CNC2(CC2)CN1C(=O)[C@@H]1C[C@@H](F)CN1C(=O)C1=C(C(C)C)N2C(=N[C@@](C)(c3ccc(Cl)nc3)[C@H]2c2ccc(Cl)c(F)c2)S1 [Compound A] please.
< 4.40

For the compound CC1(C)CCC2(CC1)N[C@@H](C(=O)N[C@@H]1CC[C@@H](C(N)=O)OC1)[C@H](c1ccnc(Cl)c1F)[C@]21C(=O)Nc2cc(Cl)ccc21 [Compound B] , give its measured pIC50 value.
< 5.00

###

- Tested on: HT-1080
- ASSAY_EXPLANATION: OncoPanel cytotoxicity assay
- Type: cell-based
- CONDITIONS: Homo sapiens, 72 hour incubation
Could you please report measured IC50 for the items listed next?
Kindly provide the numeric value in nM only, without the unit symbol.

Provide HT-1080 IC50 reading for "CC1(C)CCC2(CC1)N[C@@H](C(=O)N[C@@H]1CC[C@@H](C(N)=O)OC1)[C@H](c1ccnc(Cl)c1F)[C@]21C(=O)Nc2cc(Cl)ccc21" .
62

Provide HT-1080 IC50 reading for "CC[C@@H]1CNC2(CC2)CN1C(=O)[C@@H]1C[C@@H](F)CN1C(=O)C1=C(C(C)C)N2C(=N[C@@](C)(c3ccc(Cl)nc3)[C@H]2c2ccc(Cl)c(F)c2)S1" .
282

###

- Test system: A-673
- ASSAY_EXPLANATION: OncoPanel cytotoxicity assay
- Type: cell-based
- CONDITIONS: Homo sapiens, A673, 72 hour incubation
MEASURED_METRIC: IC50 (µM)
Just the number please, in µM, no unit attached.

Write down IC50 measured for item "CC1(C)CCC2(CC1)N[C@@H](C(=O)N[C@@H]1CC[C@@H](C(N)=O)OC1)[C@H](c1ccnc(Cl)c1F)[C@]21C(=O)Nc2cc(Cl)ccc21"
9.21

###

- Test system: HepG2
- ASSAY_EXPLANATION: OncoPanel cytotoxicity assay
- Assay type: cell-based
- CONDITIONS: Homo sapiens, 72 hour incubation
Kindly state IC50 for each of the entries shown.
Number first, unit second: that is the form wanted.

Identify measured IC50 corresponding to "CC1(C)CCC2(CC1)N[C@@H](C(=O)N[C@@H]1CC[C@@H](C(N)=O)OC1)[C@H](c1ccnc(Cl)c1F)[C@]21C(=O)Nc2cc(Cl)ccc21"
58.4 nM

Output IC50 of "CC[C@@H]1CNC2(CC2)CN1C(=O)[C@@H]1C[C@@H](F)CN1C(=O)C1=C(C(C)C)N2C(=N[C@@](C)(c3ccc(Cl)nc3)[C@H]2c2ccc(Cl)c(F)c2)S1"
335 nM

###

- Test system: PANC-1
- ASSAY_EXPLANATION: OncoPanel cytotoxicity assay
- Format: cell-based
- CONDITIONS: Homo sapiens, 72 hour incubation
MEASURED_METRIC: IC50 (µM)
Numbers only here, please. The scale is µM.

Name the recorded IC50 of the compound listed here: CC1(C)CCC2(CC1)N[C@@H](C(=O)N[C@@H]1CC[C@@H](C(N)=O)OC1)[C@H](c1ccnc(Cl)c1F)[C@]21C(=O)Nc2cc(Cl)ccc21 [Compound B]
6.73

###

- Test system: OE21
- ASSAY_EXPLANATION: OncoPanel cytotoxicity assay
- Format: cell-based
- CONDITIONS: Homo sapiens, 72 hour incubation
- Procedure: Cells were grown in RPMI 1640, 10% FBS, 2 mM L-alanyl-L-Glutamine, 1 mM Na Pyruvate, or a special medium in a humidified atmosphere of 5% CO2 at 37° C. Cells were seeded into 384-well plates and incubated in a humidified atmosphere of 5% CO2 at 37° C. Test compounds were added 24 hours post cell seeding. At the same time, a time zero, untreated cell plate was generated as a control. […] Cell proliferation was measured by the signal intensity of the incorporated nuclear dye. […]
MEASURED_METRIC: IC50 (µM)
// note: answer is a bare numeric in µM

Indicate its recorded IC50; the compound in question is "CC1(C)CCC2(CC1)N[C@@H](C(=O)N[C@@H]1CC[C@@H](C(N)=O)OC1)[C@H](c1ccnc(Cl)c1F)[C@]21C(=O)Nc2cc(Cl)ccc21"
9.81

###

- System: HCT-116
- ASSAY_EXPLANATION: OncoPanel cytotoxicity assay
- Format: cell-based
- CONDITIONS: Homo sapiens, 72 hour incubation
MEASURED_METRIC: pIC50
Reminder that pIC50 means the negative base-10 logarithm of the concentration expressed in mol/L.

Provide only the value of recorded pIC50 for "CC[C@@H]1CNC2(CC2)CN1C(=O)[C@@H]1C[C@@H](F)CN1C(=O)C1=C(C(C)C)N2C(=N[C@@](C)(c3ccc(Cl)nc3)[C@H]2c2ccc(Cl)c(F)c2)S1"
6.19

State its pIC50 for this compound: "CC1(C)CCC2(CC1)N[C@@H](C(=O)N[C@@H]1CC[C@@H](C(N)=O)OC1)[C@H](c1ccnc(Cl)c1F)[C@]21C(=O)Nc2cc(Cl)ccc21"
7.30

###

- Test system: AU565
- ASSAY_EXPLANATION: OncoPanel cytotoxicity assay
- Assay type: cell-based
- CONDITIONS: Homo sapiens, 72 hour incubation
- Procedure: Cells were grown in RPMI 1640, 10% FBS, 2 mM L-alanyl-L-Glutamine, 1 mM Na Pyruvate, or a special medium in a humidified atmosphere of 5% CO2 at 37° C. Cells were seeded into 384-well plates and incubated in a humidified atmosphere of 5% CO2 at 37° C. Test compounds were added 24 hours post cell seeding. At the same time, a time zero, untreated cell plate was generated as a control. […] Cell proliferation was measured by the signal intensity of the incorporated nuclear dye. […]
MEASURED_METRIC: IC50

Return reported IC50. Input compound: CC[C@@H]1CNC2(CC2)CN1C(=O)[C@@H]1C[C@@H](F)CN1C(=O)C1=C(C(C)C)N2C(=N[C@@](C)(c3ccc(Cl)nc3)[C@H]2c2ccc(Cl)c(F)c2)S1 [Compound A]
23.7 µM

Give IC50 for CC1(C)CCC2(CC1)N[C@@H](C(=O)N[C@@H]1CC[C@@H](C(N)=O)OC1)[C@H](c1ccnc(Cl)c1F)[C@]21C(=O)Nc2cc(Cl)ccc21 [Compound B]
> 10 µM

Each recorded value in this set is attributed to patent US20160333419A1.
